# log10 IC50 per entry
- Target Entity: human TRPA1 ion channel (Homo sapiens (Human), UniProt O75762)
- Sequence (O75762 whole entry): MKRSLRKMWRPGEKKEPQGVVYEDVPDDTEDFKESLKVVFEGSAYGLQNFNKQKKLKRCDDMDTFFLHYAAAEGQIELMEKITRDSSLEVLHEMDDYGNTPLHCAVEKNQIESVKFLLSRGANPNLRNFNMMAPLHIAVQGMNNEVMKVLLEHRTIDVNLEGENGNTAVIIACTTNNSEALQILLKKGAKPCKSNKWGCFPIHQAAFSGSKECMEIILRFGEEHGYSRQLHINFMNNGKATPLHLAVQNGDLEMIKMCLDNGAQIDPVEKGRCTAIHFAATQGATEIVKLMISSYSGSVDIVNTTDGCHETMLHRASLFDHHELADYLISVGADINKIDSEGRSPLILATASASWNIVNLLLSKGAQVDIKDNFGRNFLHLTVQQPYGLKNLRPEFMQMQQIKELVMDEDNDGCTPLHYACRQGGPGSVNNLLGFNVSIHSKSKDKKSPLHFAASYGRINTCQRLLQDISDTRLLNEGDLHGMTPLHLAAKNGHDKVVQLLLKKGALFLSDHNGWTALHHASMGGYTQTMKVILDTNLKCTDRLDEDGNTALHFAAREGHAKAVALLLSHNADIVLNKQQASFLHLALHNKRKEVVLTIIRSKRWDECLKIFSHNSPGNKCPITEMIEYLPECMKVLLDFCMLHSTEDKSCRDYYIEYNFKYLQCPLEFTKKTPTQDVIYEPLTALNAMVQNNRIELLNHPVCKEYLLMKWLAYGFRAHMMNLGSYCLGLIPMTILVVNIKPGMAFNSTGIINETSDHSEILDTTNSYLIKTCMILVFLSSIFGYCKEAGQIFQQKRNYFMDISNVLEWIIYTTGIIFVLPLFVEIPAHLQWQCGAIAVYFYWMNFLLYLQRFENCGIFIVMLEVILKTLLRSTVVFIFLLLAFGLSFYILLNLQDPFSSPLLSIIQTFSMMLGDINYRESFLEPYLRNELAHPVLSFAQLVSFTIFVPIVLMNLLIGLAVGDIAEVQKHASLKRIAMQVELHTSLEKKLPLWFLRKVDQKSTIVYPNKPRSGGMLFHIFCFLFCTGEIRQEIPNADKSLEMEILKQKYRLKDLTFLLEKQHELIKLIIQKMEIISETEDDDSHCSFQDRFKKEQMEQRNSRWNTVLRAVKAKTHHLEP
- Test Method Notes: Assay A: TRPA1 assay (FLIPR calcium, AITC agonism, HEK293 over-expressing human TRPA1)
- Condition Context: HEK293 over-expressing human TRPA1, AITC 10 μM, FLIPRtetra; read-out: hTRPA1 IC50
# log10 transformed; quantity=IC50; unit=nM

log10 IC50 reading for `CNC(=O)c1sc2ncn(Cc3nnn(C[C@H](O)c4ccc(C)cc4)n3)c(=O)c2c1C` : 1.58

====

- Test Method Notes: Assay B: Microsomal clearance
- Assay type: in vitro ADME, human
- Condition Context: pooled liver microsomes, 1 μM test compound, 37° C.
Measured Attribute: human LM [% Qh]

Worked cases, answers included:
[
  {
    "Smiles Input": "Cc1c(C(N)=O)sc2ncn(Cc3nnn(C[C@H](O)c4ccc5c(c4)OCO5)n3)c(=O)c12",
    "Data Value": "<23 % Qh"
  },
  {
    "Smiles Input": "Cc1c(C(N)=O)sc2ncn(Cc3nnn(C[C@H](O)c4ccc(Cl)cc4)n3)c(=O)c12",
    "Data Value": "<23 % Qh"
  }
]

Turning now to a further record.
human LM [% Qh] reading for `O=C1NCCc2c1sc1ncn(Cc3nnn(C[C@H](O)c4cc5cc(F)ccc5o4)n3)c(=O)c21` : <23 % Qh

Source listed as patent US11578080B2.
